- System: Rattus norvegicus
- assay-procedure: Antidiuretic activity in iv dosed water loaded rat
- Type: functional, Urine
Positions of bridges follow the written chain, without caps; N, C: chain ends. Non-standard residues stand in square brackets, D forms with d. Residues, ends and D or L forms follow the SMILES beside them. 2Thi = N[C@@H](Cc1cccs1)C(=O)O
The reader will find reported log10(Activity) values listed item by item below.
// units: U/mg (pre-log); metric: Activity; scale: log10

Reference set, count: 3
NCCCC[C@H](NC(=O)[C@@H]1CCCN1C(=O)[C@@H]1CSSC[C@H](N)C(=O)N[C@@H](Cc2ccc(O)cc2)C(=O)N[C@@H](Cc2ccc(O)cc2)C(=O)N[C@@H](CCC(N)=O)C(=O)N[C@@H](CC(N)=O)C(=O)N1)C(=O)NCC(N)=O (H-CYYQNCPKG-NH2; disulfide 1-6)	-0.74
CC[C@H](C)[C@@H]1NC(=O)[C@H](Cc2ccc(O)cc2)NC(=O)[C@@H](N)CSSC[C@@H](C(=O)N2CCC[C@H]2C(=O)N[C@@H](CCCNC(=N)N)C(=O)NCC(N)=O)NC(=O)[C@H](CC(N)=O)NC(=O)[C@H](CCC(N)=O)NC1=O [ARGIPRESTOCIN] (H-CYIQNCPRG-NH2; disulfide 1-6)	2.39
NCCCC[C@H](NC(=O)[C@@H]1CCCN1C(=O)[C@@H]1CSSC[C@H](N)C(=O)N[C@@H](Cc2ccc(O)cc2)C(=O)N[C@@H](Cc2cccs2)C(=O)N[C@@H](CCC(N)=O)C(=O)N[C@@H](CC(N)=O)C(=O)N1)C(=O)NCC(N)=O (H-CY[2Thi]QNCPKG-NH2; disulfide 1-6)	2.52

Incoming: Request the reported log10(Activity) associated with `NCCCC[C@H](NC(=O)[C@@H]1CCCN1C(=O)[C@@H]1CSSC[C@H](N)C(=O)N[C@@H](Cc2ccc(O)cc2)C(=O)N[C@@H](Cc2ccccc2)C(=O)N[C@@H](CCC(N)=O)C(=O)N[C@@H](CC(N)=O)C(=O)N1)C(=O)NCC(N)=O`
Outgoing: 2.33

Incoming: Request the reported log10(Activity) associated with NCCCC[C@H](NC(=O)[C@@H]1CCCN1C(=O)[C@@H]1CSSC[C@H](N)C(=O)N[C@@H](Cc2ccc(O)cc2)C(=O)N[C@@H](CO)C(=O)N[C@@H](CCC(N)=O)C(=O)N[C@@H](CC(N)=O)C(=O)N1)C(=O)NCC(N)=O (H-CYSQNCPKG-NH2; disulfide 1-6)
Outgoing: -1.10

---

- assay-procedure: Stability of the compound in 0.2 M potassium phosphate buffer at pH 7.7 assessed as hydrolysis by measuring Tyr level in presence of alpha-amylase preparation
- Assay type: ADME
Starred links: 1 amine or outer side, 2 acyl side, 3 side chain; linkers in the order of their positions; H or OH if unused. Non-standard residues stand in square brackets, D forms with d. Residues, ends and D or L forms follow the SMILES beside them. *: point of attachment. X1 = O=C([C@H](CC1=CCC=CC1)N[*:1])[*:2]; Tos = Cc1ccc(S(=O)(=O)*)cc1; Cbz = O=C(OCc1ccccc1)*; Bn = c1ccc(C*)cc1
measured-property: Drug degradation (mol%)
Could you give me the number in mol%? Just the number is fine.

Reference set, count: 3
Cc1ccc(S(=O)(=O)NCCCC[C@H](NC(=O)[C@@H]2CCCN2C(=O)[C@H](CSCc2ccccc2)NC(=O)[C@H](CC(N)=O)NC(=O)[C@H](CCC(N)=O)NC(=O)[C@H](CC2=CCC=CC2)NC(=O)[C@H](Cc2ccc(OCc3ccccc3)cc2)NC(=O)[C@H](CSCc2ccccc2)NC(=O)OCc2ccccc2)C(=O)NCC(N)=O)cc1 (Cbz-C(Bn)Y(Bn)[X1]QNC(Bn)PK(Tos)G-NH2)	77
CC[C@H](C)[C@@H]1NC(=O)[C@H](Cc2ccc(O)cc2)NC(=O)[C@@H](N)CSSC[C@@H](C(=O)N2CCC[C@H]2C(=O)N[C@@H](CC(C)C)C(=O)NCC(N)=O)NC(=O)[C@H](CC(N)=O)NC(=O)[C@H](CCC(N)=O)NC1=O [OXYTOCIN]	63
NCCCC[C@H](NC(=O)[C@@H]1CCCN1C(=O)[C@@H]1CSSC[C@H](N)C(=O)N[C@@H](Cc2ccc(O)cc2)C(=O)N[C@@H](Cc2ccccc2)C(=O)N[C@@H](CCC(N)=O)C(=O)N[C@@H](CC(N)=O)C(=O)N1)C(=O)NCC(N)=O [LYPRESSIN]	100

Now consider a different compound.
Incoming: Request the reported Drug degradation associated with `CC[C@H](C)[C@H](NC(=O)[C@H](Cc1ccc(O)cc1)NC(=O)[C@@H](N)CS(=O)(=O)O)C(=O)N[C@@H](CCC(N)=O)C(=O)N[C@@H](CC(N)=O)C(=O)N[C@@H](CS(=O)(=O)O)C(=O)N1CCC[C@H]1C(=O)N[C@@H](CC(C)C)C(=O)NCC(N)=O`
Outgoing: 26

---

The reader will find reported Activity values listed item by item below.
- Species: Rattus norvegicus
- assay-procedure: Vasopressor activity in phenoxybenzamine-treated rat
- Type: functional
Positions of bridges follow the written chain, without caps; N, C: chain ends. Non-standard residues stand in square brackets, D forms with d. Residues, ends and D or L forms follow the SMILES beside them. 2Thi = N[C@@H](Cc1cccs1)C(=O)O
Could you give me the number in U/mg? Just the number is fine.

Reference set, count: 3
NCCCC[C@H](NC(=O)[C@@H]1CCCN1C(=O)[C@@H]1CSSC[C@H](N)C(=O)N[C@@H](Cc2ccc(O)cc2)C(=O)N[C@@H](Cc2ccccc2)C(=O)N[C@@H](CCC(N)=O)C(=O)N[C@@H](CC(N)=O)C(=O)N1)C(=O)NCC(N)=O	258
NCCCC[C@H](NC(=O)[C@@H]1CCCN1C(=O)[C@@H]1CSSC[C@H](N)C(=O)N[C@@H](Cc2ccc(O)cc2)C(=O)N[C@@H](Cc2cccs2)C(=O)N[C@@H](CCC(N)=O)C(=O)N[C@@H](CC(N)=O)C(=O)N1)C(=O)NCC(N)=O (H-CY[2Thi]QNCPKG-NH2; disulfide 1-6)	243
NCCCC[C@H](NC(=O)[C@@H]1CCCN1C(=O)[C@@H]1CSSC[C@H](N)C(=O)N[C@@H](Cc2ccc(O)cc2)C(=O)N[C@@H](Cc2ccc(O)cc2)C(=O)N[C@@H](CCC(N)=O)C(=O)N[C@@H](CC(N)=O)C(=O)N1)C(=O)NCC(N)=O (H-CYYQNCPKG-NH2; disulfide 1-6)	0.07

Now consider a different compound.
Incoming: Request the reported Activity associated with CC[C@H](C)[C@@H]1NC(=O)[C@H](Cc2ccc(O)cc2)NC(=O)[C@@H](N)CSSC[C@@H](C(=O)N2CCC[C@H]2C(=O)N[C@@H](CCCCN)C(=O)NCC(N)=O)NC(=O)[C@H](CC(N)=O)NC(=O)[C@H](CCC(N)=O)NC1=O (H-CYIQNCPKG-NH2; disulfide 1-6)
Outgoing: 130

---

- System: Rattus norvegicus
- assay-procedure: Antidiuretic activity in iv dosed water loaded rat
- Type: functional, Urine
Positions of bridges follow the written chain, without caps; N, C: chain ends. Residues, ends and D or L forms follow the SMILES beside them.
measured-property: Activity (U/mg)
Could you give me the number in U/mg? Just the number is fine.

CC[C@H](C)[C@@H]1NC(=O)[C@H](Cc2ccc(O)cc2)NC(=O)[C@@H](N)CSSC[C@@H](C(=O)N2CCC[C@H]2C(=O)N[C@@H](CCCCN)C(=O)NCC(N)=O)NC(=O)[C@H](CC(N)=O)NC(=O)[C@H](CCC(N)=O)NC1=O (H-CYIQNCPKG-NH2; disulfide 1-6)	24

Now consider a different compound.
Incoming: Request the reported Activity associated with `N=C(N)NCCC[C@H](NC(=O)[C@@H]1CCCN1C(=O)[C@@H]1CSSC[C@H](N)C(=O)N[C@@H](Cc2ccc(O)cc2)C(=O)N[C@@H](Cc2ccccc2)C(=O)N[C@@H](CCC(N)=O)C(=O)N[C@@H](CC(N)=O)C(=O)N1)C(=O)NCC(N)=O`
Outgoing: 429
